# credit: patent US12692269B2

# Tgt: TEAD2 TAZ (amino acids 13-57) (Homo sapiens, UniProt Q15562)
# Sequence (Q15562 217-447): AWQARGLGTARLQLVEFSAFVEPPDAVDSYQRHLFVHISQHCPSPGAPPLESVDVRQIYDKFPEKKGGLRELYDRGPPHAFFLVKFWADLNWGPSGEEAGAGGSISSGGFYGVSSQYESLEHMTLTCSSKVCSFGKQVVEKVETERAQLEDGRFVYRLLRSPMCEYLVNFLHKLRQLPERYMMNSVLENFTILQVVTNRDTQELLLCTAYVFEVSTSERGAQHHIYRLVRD
# Assay info: TEAD2-TAZ HTRF (TR-FRET) protein-protein interaction assay
# Type: binding
# Study conditions: TEAD2, TAZ peptide, HTRF
Experimental endpoint: TEAD2 TAZ HTRF combined: Max % Inhibition (%)

Cc1ccnc(-c2nn3c(=O)cc(-c4ccc(C5CCCCC5)cc4)[nH]c3c2C(=O)N2CC(CF)C2)n1 [Compound 9] :: 63.0
Cc1nccnc1-c1nn2c(=O)cc(-c3ccc(O[C@H](c4ccccc4)C(F)(F)F)cc3)[nH]c2c1C(=O)N1CC(CF)C1 [Compound 68] :: 75.5
O=C(c1c(-c2nccc(C(F)(F)F)n2)nn2c(=O)cc(-c3ccc(C4CCCCC4)cc3)[nH]c12)N1CC(CF)C1 [Compound 11] :: 63.0
O=C(c1c(-c2ncco2)nn2c(=O)cc(-c3ccc(C4CCCCC4)cc3)[nH]c12)N1CC(CF)C1 [Compound 19] :: 63.5
